Source of measurements: paper PMC8224687

Assay: Experimental lipophilicity by RP-TLC (RM0, logPTLC, hydrophobic index)
Conditions: RP-TLC, acetone / TRIS 0.2 M pH 7.4, extrapolated to zero acetone
Items are presented alongside their recorded RM0 (chromatographic parameter of lipophilicity).
measured-metric: RM0 (chromatographic parameter of lipophilicity)

# molecule, value-observed
measured = [
    ("C=C(C)[C@@H]1CC[C@]2(COC(=O)c3cn(CCCOC4=C(Cl)C(=O)c5ccc(C)nc5C4=O)nn3)CC[C@]3(C)C(CCC4[C@@]5(C)CC[C@H](O)C(C)(C)C5CC[C@]43C)C12 (stereo partly shown)", 3.65),
    ("C=C(C)[C@@H]1CC[C@]2(COC(=O)c3cn(CCCOC4=C(Cl)C(=O)c5ccc(C)nc5C4=O)nn3)CC[C@]3(C)C(CCC4[C@@]5(C)CCC(=O)C(C)(C)C5CC[C@]43C)C12 (stereo partly shown)", 3.77),
    ("C=C(C)[C@@H]1CC[C@]2(COC(=O)c3cn(CCCOC4=C(Cl)C(=O)c5ccccc5C4=O)nn3)CC[C@]3(C)C(CCC4[C@@]5(C)CCC(=O)C(C)(C)C5CC[C@]43C)C12 (stereo partly shown)", 3.84),
    ("C[C@]12C=CC(=O)C=C1CC[C@@H]1[C@@H]2C(=O)C[C@@]2(C)[C@H]1CC[C@]2(O)C(=O)CO [Prednisone, prednisone, reference compound]", 0.73),
    ("C=C(C)[C@@H]1CC[C@]2(COC(=O)c3cn(CCCOC4=C(Cl)C(=O)c5cccnc5C4=O)nn3)CC[C@]3(C)C(CCC4[C@@]5(C)CC[C@H](OC(=O)CC)C(C)(C)C5CC[C@]43C)C12 (stereo partly shown)", 4.08),
    ("C=C(C)[C@@H]1CC[C@]2(COC(=O)c3cn(CCCOC4=C(Cl)C(=O)c5cccnc5C4=O)nn3)CC[C@]3(C)C(CCC4[C@@]5(C)CC[C@H](O)C(C)(C)C5CC[C@]43C)C12 (stereo partly shown)", 3.51),
    ("C=C(C)[C@@H]1CC[C@]2(COC(=O)c3cn(CCCO)nn3)CC[C@]3(C)C(CCC4[C@@]5(C)CCC(=O)C(C)(C)C5CC[C@]43C)C12 (stereo partly shown)", 4.54),
    ("C=C(C)[C@@H]1CC[C@]2(COC(=O)c3cn(CCCOC4=C(Cl)C(=O)c5ccncc5C4=O)nn3)CC[C@]3(C)C(CCC4[C@@]5(C)CC[C@H](O)C(C)(C)C5CC[C@]43C)C12 (stereo partly shown)", 3.56),
    ("C=C(C)[C@@H]1CC[C@]2(COC(=O)c3cn(CCCOC4=C(Cl)C(=O)c5ccncc5C4=O)nn3)CC[C@]3(C)C(CCC4[C@@]5(C)CC[C@H](OC(C)=O)C(C)(C)C5CC[C@]43C)C12 (stereo partly shown)", 4.07),
    ("C=C(C)[C@@H]1CC[C@]2(COC(=O)c3cn(CCCOC4=C(Cl)C(=O)c5ccccc5C4=O)nn3)CC[C@]3(C)C(CCC4[C@@]5(C)CC[C@H](OC(=O)CC)C(C)(C)C5CC[C@]43C)C12 (stereo partly shown)", 4.58),
]

---

Assay: Experimental lipophilicity by RP-TLC (RM0, logPTLC, hydrophobic index)
Settings: logPTLC (experimental lipophilicity), from RM0 by calibration curve Equation (4)
Output label 1 for chromatographic logP not less than 5; output label 0 otherwise.

# molecule, label-class
data = [
    ("C=C(C)[C@@H]1CC[C@]2(COC(=O)c3cn(CCCO)nn3)CC[C@]3(C)C(CCC4[C@@]5(C)CC[C@H](OC(C)=O)C(C)(C)C5CC[C@]43C)C12 (some centres unmarked)", "label 1"),
    ("C=C(C)[C@@H]1CC[C@]2(COC(=O)c3cn(CCCOC4=C(Cl)C(=O)c5cccnc5C4=O)nn3)CC[C@]3(C)C(CCC4[C@@]5(C)CC[C@H](OC(=O)CC)C(C)(C)C5CC[C@]43C)C12 (some centres unmarked)", "label 1"),
    ("C=C(C)[C@@H]1CC[C@]2(COC(=O)c3cn(CCCO)nn3)CC[C@]3(C)C(CCC4[C@@]5(C)CC[C@H](O)C(C)(C)C5CC[C@]43C)C12 (some centres unmarked)", "label 1"),
    ("C=C(C)[C@@H]1CC[C@]2(COC(=O)c3cn(CCCOC4=C(Cl)C(=O)c5ccc(C)nc5C4=O)nn3)CC[C@]3(C)C(CCC4[C@@]5(C)CC[C@H](O)C(C)(C)C5CC[C@]43C)C12 (some centres unmarked)", "label 0"),
    ("C=C(C)[C@@H]1CC[C@]2(COC(=O)c3cn(CCCOC4=C(Cl)C(=O)c5cccnc5C4=O)nn3)CC[C@]3(C)C(CCC4[C@@]5(C)CCC(=O)C(C)(C)C5CC[C@]43C)C12 (some centres unmarked)", "label 0"),
]
